assay: NCI Yeast Anticancer Drug Screen. Data for the sgs1 mgt1 strain (AID 161);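 further: 0% = growth of cultures given vehicle only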; details: S. cerevisiae sgs1 mgt1 strain, at 5.0 µM (retest, dose inferred, filed as 0.5)
This is part of a sample that, as a whole, favours compounds with a hit. Of some 79,000 tested, about 15% had one in any assay. Active and inactive are the calls of the source. No stated cut-off is given here; in the data, active means growth inhibition above about 70%; inactive means the rest.
Labels: active, inactive

{"compound": "CCCCCCCCCCCCCCCc1cccc(O)c1O", "cat": "inactive"}
{"compound": "NC(=O)/C=C/C(=O)O (tested in a mixture with another compound)", "cat": "inactive"}
{"compound": "CCC[CH2][Sn]1([CH2]CCC)[O]CC[S]1", "cat": "active"}
{"compound": "Nc1ccc(N=Nc2ccccc2)cc1", "cat": "inactive"}
{"compound": "O=C(OCc1ccccc1)C(C(Cl)c1ccccc1)N(Cc1ccccc1)Cc1ccccc1 (stereo unspecified)", "cat": "inactive"}
{"compound": "C[As](C)SCCC(CCCCC(=O)O)S[As](C)C (stereo unspecified)", "cat": "inactive"}

###

test: NCI Yeast Anticancer Drug Screen. Data for the cln2 rad14 strain (AID 165);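 further: 0% = growth equal to vehicle treated cultures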; conditions: S. cerevisiae cln2 rad14 strain, at 50.0 µM (retest, dose inferred, filed as 5.0), stronger effect = higher value
Compounds without any hit were thinned out: in the full panel of roughly 79,000, 15% have a hit.
growth inhibition values for the compounds below.

{"compound": "CN(C)CC1CCCCC1=O (stereo unspecified)", "unitsOfMeasure": "%", "growth inhibition": 3}
{"compound": "O=S(=O)(F)c1ccc(Cl)cc1C[P+](c1ccccc1)(c1ccccc1)c1ccccc1", "unitsOfMeasure": "%", "growth inhibition": 54}
{"compound": "COP(=S)(OC)N(C)C(=O)Oc1cccc2ccccc12", "unitsOfMeasure": "%", "growth inhibition": 10}
{"compound": "O=C(N/N=C/c1cc(Cl)cc(Cl)c1[O-])c1ccccc1O.O=C(N/N=C/c1cc(Cl)cc(Cl)c1[O-])c1ccccc1O.[Zn+2]", "unitsOfMeasure": "%", "growth inhibition": 50}
{"compound": "COC(=O)CC1(C(=O)O)CC2(Cl)C(Cl)=C(Cl)C1(Cl)C2(Cl)Cl (stereo unspecified)", "unitsOfMeasure": "%", "growth inhibition": 56}
{"compound": "O=c1[nH]cnc2[nH]cc(CN3CCCCC3)c12", "unitsOfMeasure": "%", "growth inhibition": 0}
{"compound": "CC[C@@]1(O)C[C@H](OC2CC(N(C)C)C(O)C(C)O2)c2c(O)c3c(c(O)c2[C@H]1OC1CC(N(C)C)C(O)C(C)O1)C(=O)c1cccc(O)c1C3=O (stereo partly specified)", "unitsOfMeasure": "%", "growth inhibition": 71}
{"compound": "CCC[CH2][Sn]([Cl])([Cl])[CH2]CCC", "unitsOfMeasure": "%", "growth inhibition": 98}
{"compound": "O=C(c1ccccc1)C1CCCN(CCc2ccccc2)C1 (stereo unspecified)", "unitsOfMeasure": "%", "growth inhibition": 62}
{"compound": "C[CH2][Hg][Cl]", "unitsOfMeasure": "%", "growth inhibition": 99}
{"compound": "O=c1oc2ccccc2c(O)c1C(c1ccc(OCc2ccccc2)cc1)c1c(O)c2ccccc2oc1=O", "unitsOfMeasure": "%", "growth inhibition": 94}
{"compound": "COc1cc(C(=O)CCN(CCCl)CCCl)cc(OC)c1OC", "unitsOfMeasure": "%", "growth inhibition": 55}
{"compound": "CCNCC(=O)O[C@]1(CC)C(=O)OCc2c1cc1n(c2=O)Cc2cc3ccccc3nc2-1", "unitsOfMeasure": "%", "growth inhibition": 31}
{"compound": "Cc1ccc([C@H]2N[C@@H]2c2ccccn2)cc1", "unitsOfMeasure": "%", "growth inhibition": -5}
{"compound": "ClC(C[n+]1ccccc1)c1ccccc1 (stereo unspecified)", "unitsOfMeasure": "%", "growth inhibition": 3}
{"compound": "C[CH2][Sn][CH2]C.c1cc[c]([Ge]([c]2ccccc2)[c]2ccccc2)cc1.c1cc[c]([Sn]([c]2ccccc2)[c]2ccccc2)cc1", "unitsOfMeasure": "%", "growth inhibition": 97}
{"compound": "O=C(O)CCCC1CCCCC1", "unitsOfMeasure": "%", "growth inhibition": 27}
{"compound": "CCCCCCCCCCCCCC(=O)O", "unitsOfMeasure": "%", "growth inhibition": 20}
{"compound": "CCC[CH2][Sn]([CH2]CCC)([O]C(=O)C(N)CSC)[O]C(=O)C(N)CSC (stereo unspecified)", "unitsOfMeasure": "%", "growth inhibition": 1}
{"compound": "CCOP(=O)(OCC)/C(C#N)=C/c1cccc(Cl)c1", "unitsOfMeasure": "%", "growth inhibition": 94}
{"compound": "C[C@@H]1CCC2[C@@H](C)[C@H](O[C@H]3O[C@@H]4O[C@@]5(C)CCC6[C@H](C)CCC([C@H]3C)[C@]64OO5)O[C@@H]3O[C@@]4(C)CCC1[C@@]23OO4 (stereo partly specified)", "unitsOfMeasure": "%", "growth inhibition": 93}

###

Assay: NCI Yeast Anticancer Drug Screen. Data for the mlh1 rad18 strain (AID 175)
Conditions: S. cerevisiae mlh1 rad18 strain growth inhibition; at 50.0 µM; stronger effect = higher value
Experimental: Growth inhibition of yeast strains with defined genetic alterations is measured as a screen for potential anti-cancer activity. Selected strains with alterations in DNA damage repair or cell cycle control were exposed to compounds and growth inhibition was measured relative to vehicle treated controls. The strain used in this assay is mlh1 rad18
About 79,000 compounds went through this panel and 15% of them were active in at least one assay; those are over-represented in the sample as a whole.

{"compound": "O=c1oc2ccccc2c(O)c1C(c1ccco1)c1c(O)c2ccccc2oc1=O", "growth inhibition / %": 27.5}
{"compound": "CC1(O)CC([CH2][Hg][I])OC([CH2][Hg][I])C1 (stereo unspecified)", "growth inhibition / %": 91.6}
{"compound": "CCC[CH2][Sn]([CH2]CCC)([S]C1=NCCS1)[S]C1=NCCS1", "growth inhibition / %": 86.5}
{"compound": "COc1cc(C(=O)CCN(CCCl)CCCl)cc(OC)c1OC", "growth inhibition / %": 97.1}
{"compound": "CC(Cc1ccccc1)N(C)Cc1ccc(-c2ccc(Cl)cc2)o1 (stereo unspecified)", "growth inhibition / %": 99.5}
{"compound": "CNC1=C(C)C(=O)C2=C(C1=O)C(COC(N)=O)C1(O)C3C(CN21)N3C (stereo unspecified)", "growth inhibition / %": 83}

###

test: NCI Yeast Anticancer Drug Screen. Data for the mlh1 rad18 strain (AID 175); conditions: S. cerevisiae mlh1 rad18 strain growth inhibition; at 50.0 µM; stronger effect = higher value
Compounds without any hit were thinned out: in the full panel of roughly 79,000, 15% have a hit.
Label scheme for growth inhibition: lower than 90% is 0 (no), 90% and above is 1 (yes).

{"compound": "CC1(C)N([O-])[N+](=O)C1(C)Br (stereo unspecified)", "cat": "0 (no)"}
{"compound": "S=P(Nc1ccccc1)(Nc1ccccc1)Nc1ccccc1", "cat": "1 (yes)"}
{"compound": "Cc1ccccc1C(=O)CN", "cat": "0 (no)"}
{"compound": "O/N=C/c1ccc2c(c1)OCO2", "cat": "0 (no)"}
{"compound": "CN(N=O)C(=O)NNC(=O)N(C)N=O", "cat": "0 (no)"}
{"compound": "O=[N+]([O-])c1cc2c([N+](=O)[O-])cccc2o1", "cat": "1 (yes)"}

###

Test: NCI Yeast Anticancer Drug Screen. Data for the mgt1 strain (AID 153)
Details: S. cerevisiae mgt1 mutant growth inhibition; at 3.7 µM; stronger effect = higher value
Procedure: Growth inhibition of yeast strains with defined genetic alterations is measured as a screen for potential anti-cancer activity. Selected strains with alterations in DNA damage repair or cell cycle control were exposed to compounds and growth inhibition was measured relative to vehicle treated controls. The strain used in this assay is mgt1
Compounds without any hit were thinned out: in the full panel of roughly 79,000, 15% have a hit.
resultType: growth inhibition (%)

{"compound": "O=Cc1ccc(C(F)(F)F)cc1.[C-]#[O+].[C-]#[O+].[C-]#[O+].[Cr]", "testResult": 1}
{"compound": "CCOC(=O)C1=C(C(=O)OCC)C2(c3ccccc3)N(O1)c1ccccc1C2(C)C (configuration not stated)", "testResult": 0}
{"compound": "Nc1nc(-c2ccccc2)c(-c2ccccc2)[se]1", "testResult": 1}
{"compound": "O=C(O)CCCOc1cc(Cl)c(Cl)cc1Cl", "testResult": -32}
{"compound": "CC[C@@]1(O)C(=O)OCc2c1cc1n(c2=O)Cc2cc3c(NC(=O)CN)cccc3nc2-1", "testResult": 1}
{"compound": "O=S(=O)(O)c1ccc(Cl)cc1.[Cd]", "testResult": 15}
{"compound": "Nc1ccccc1C(=O)OCCc1ccccc1", "testResult": -63}
{"compound": "O=c1oc2ccccc2c(O)c1C(c1ccc2ccccc2c1)c1c(O)c2ccccc2oc1=O", "testResult": 17}
{"compound": "O=[N+]([O-])c1ccc(N2CCC(CCCC3CCN(c4ccc([N+](=O)[O-])cc4[N+](=O)[O-])CC3)CC2)c([N+](=O)[O-])c1", "testResult": -4}
{"compound": "O=C1C=CC(=O)C1(Br)Br", "testResult": -4}
{"compound": "CCCN(CCC)c1c([N+](=O)[O-])cc(S(N)(=O)=O)cc1[N+](=O)[O-]", "testResult": 0}
{"compound": "CN(N=O)C(=O)NNC(=O)N(C)N=O", "testResult": 28}
{"compound": "[O-][n+]1c2cccc(O)c2[n+]([O-])c2cccc(O)c21", "testResult": 10}
{"compound": "O=S(=O)(O)/C(=C\\c1ccccc1)c1ccccc1 (tested in a mixture with another compound)", "testResult": -1}
{"compound": "O=C(Nc1cc(Cl)ccc1Cl)C(Cl)(Cl)Cl", "testResult": 3}
{"compound": "CCC(=O)OC1CCn2c1nc1c2C(=O)C(C)=C(N2CC2)C1=O (configuration not stated)", "testResult": -7}
{"compound": "CCCCCCCCCCCCCCCCP(=O)(O)OCC(N)C(=O)O (configuration not stated)", "testResult": 21}
{"compound": "NNc1ccccc1Cl", "testResult": 42}
{"compound": "Br[Se]c1ccccn1", "testResult": 12}
{"compound": "CCCCN(CCCC)CC(C(C)=O)C(c1ccccc1)c1c(O)c2ccccc2oc1=O (configuration not stated)", "testResult": 2}
{"compound": "c1ccc(N=c2nc(N3CCOCC3)ss2)cc1", "testResult": 11}
{"compound": "CC(Cc1ccccc1)N(C)Cc1nc(C2CCC([N+](=O)[O-])O2)no1 (configuration not stated)", "testResult": -1}
